Each entry below carries its reported TGI.
- Test system: UACC-257 melanoma
- protocolDetails: NCI tumour cell line growth inhibition, 48 h

Sample records with TGI:
OCCNCO    > 100 µM
CCOC(=O)CCCO    > 100 µM
O=C1CCC(NC(=O)c2ccccc2)C(=O)N1 (centres undefined)    > 100 µM
c1ccc(-c2nnc(-c3nn(-c4ccccc4)c4nc5ccccc5nc34)o2)cc1    > 100 µM
COc1ccc(CN2CCCC(C(=O)c3ccc(C(F)(F)F)cc3)C2)c(O)c1 (centres undefined)    74.4 µM

Ask: Requested read-out TGI, target or system UACC-257 melanoma, entry Cc1cc(O)cc(O)c1N=Nc1ccc([N+](=O)[O-])cc1
Result: 79.5 µM

Ask: Requested read-out TGI, target or system UACC-257 melanoma, entry O=C(/C=C/c1cccs1)c1ccc(Cl)cc1
Result: > 100 µM

====

- Tested on: HCC-2998 colon
- protocolDetails: NCI tumour cell line growth inhibition, 48 h
metricName: TGI

CCN(CC)CCCn1c(=O)c2cccnc2n2c3c(=O)n(C)c(=O)n(C)c3nc12    > 100 µM
O=C1CSC(N2CCN(c3cccc(Cl)c3)CC2)=N1    > 100 µM
N#CC(C#N)=C1CCCS(=O)(=O)c2ccccc21    > 100 µM

Ask: Requested read-out TGI, target or system HCC-2998 colon, entry CC1=C2[C@@H](CC1)[C@]1(C)O[C@@](C(C)C)(C[C@H]1OC(=O)[C@H](C)O)[C@H]2OC(=O)/C=C/c1ccccc1
Result: 28.2 µM

Ask: Requested read-out TGI, target or system HCC-2998 colon, entry CCC[C@H](C)[C@H]1NC(=O)[C@@H](NC(=O)[C@@H](CC(C)C)N(C)C(=O)C2CCCN2C(=O)[C@H](C)O)[C@@H](C)OC(=O)[C@H](CC(C)C)N(C)C(=O)[C@@H]2CCCN2C(=O)[C@H](CC(C)C)NC(=O)[C@@H](C)C(=O)[C@H](C(C)C)OC(=O)C[C@@H]1O (some centres undefined)
Result: 0.00551 µM

Ask: Requested read-out TGI, target or system HCC-2998 colon, entry COc1cc([C@@H]2c3cc4c(cc3C[C@H]3COC(=O)[C@@H]32)OCO4)cc(OC)c1OC
Result: 1.01 µM

Ask: Requested read-out TGI, target or system HCC-2998 colon, entry NNC(=O)c1cnn(-c2ccnc3c(C(F)(F)F)cccc23)c1N
Result: > 100 µM

Ask: Requested read-out TGI, target or system HCC-2998 colon, entry CC1=CC(=O)N(n2c(C)n[nH]c2=O)C1=O
Result: > 100 µM

Ask: Requested read-out TGI, target or system HCC-2998 colon, entry COc1nc2c(cc1S(=O)(=O)c1ccccc1)CCc1c-2cnn1-c1ccccc1Cl
Result: > 100 µM

====

Each entry below carries its reported TGI.
- Test system: SNB-75 CNS
- protocolDetails: NCI tumour cell line growth inhibition, 48 h

O=C(Nc1ccccc1[N+](=O)[O-])c1ccccc1    > 100 µM
CC(=O)Nc1ccc(Cl)c(Cl)c1    > 100 µM
NCCCC(N)C(=O)O (stereo unspecified)    > 100 µM
CN1CN(c2ccccc2)C2(CCN(CCCC3(c4cccs4)OCCO3)CC2)C1=O    > 100 µM
CSc1c(C(=O)Nc2ccc(C)cc2)c(N)[nH]c(=O)c1C#N    > 100 µM
CC(=O)/C(=C/n1c(=S)sc2ccccc21)C(=O)Nc1ccccc1C    > 100 µM

Ask: Query (molecule): CC(=O)OCC1OC(n2c(=S)[nH]c(-c3ccccc3)c(C#N)c2=O)C(OC(C)=O)C(OC(C)=O)C1OC(C)=O (stereo unspecified) ; field requested: TGI
Result: > 100 µM

Ask: Query (molecule): O=C1/C(=C/c2ccc(Br)s2)NC(=S)N1CN1CCOCC1 ; field requested: TGI
Result: > 100 µM

Ask: Query (molecule): CC1=CC=CC(C)(C)CC1(O[Si](C)(C)C)C(F)(F)F (stereo unspecified) ; field requested: TGI
Result: > 100 µM

Ask: Query (molecule): CCOc1ccc2nc(NC(=O)/C(CC(=O)CC(C3=C(O)c4ccccc4CC3=O)c3ccccc3)=N\O)sc2c1 (stereo unspecified) ; field requested: TGI
Result: > 100 µM

Ask: Query (molecule): NS(=O)(=O)c1ccc(-n2nc(-c3ccc(Br)cc3)ccc2=O)cc1 ; field requested: TGI
Result: > 10 µM

Ask: Query (molecule): C(=Nc1ccc(-c2nc3ccccc3s2)cc1)c1ccco1 ; field requested: TGI
Result: > 100 µM

Ask: Query (molecule): CN1CCN(C(=S)N(C)C(=O)c2ccc(Cl)cc2)CC1 ; field requested: TGI
Result: > 100 µM

Ask: Query (molecule): N#CC(C#N)=C1CCCS(=O)(=O)c2ccccc21 ; field requested: TGI
Result: > 100 µM

Ask: Query (molecule): COC(=O)[C@@H](C)C[C@H](Cc1ccccc1)NC(=O)c1nc([C@@H](C[C@H](C(C)C)N(C)C(=O)[C@@H](NC(=O)[C@H]2CCCN2C)C(C)C)OC(C)=O)sc1C ; field requested: TGI
Result: > 25 µM

Ask: Query (molecule): CC(C)=CC1C(C(=O)O)C1(C)C (stereo unspecified) ; field requested: TGI
Result: > 750 µM
